// provenance: ChEMBL document CHEMBL5329223

System: Hep 3B2
Assay: Cytotoxicity against human Hep3B cells assessed as cell growth inhibition incubated for 72 hrs by SRB assay
Assay type: functional, cell-based
Give measured pIC50 for each item. Keep answers brief.
Please express pIC50 as -log10 of the molar concentration.

// pIC50 lookup, molecule = COc1ccc(N2CCN(c3ncnc4c3ncn4C3CCCC3)CC2)cc1 , result: 6.52

// pIC50 lookup, molecule = O=S(=O)(c1ccc(F)cc1)N1CCN(c2ncnc3c2ncn3C2CCCC2)CC1 , result: 5.21

// pIC50 lookup, molecule = Cc1ccc(N2CCN(c3ncnc4c3ncn4C3CCCC3)CC2)cc1 , result: 5.51

// pIC50 lookup, molecule = O=S(=O)(c1ccc(Br)cc1)N1CCN(c2ncnc3c2ncn3C2CCCC2)CC1 , result: 5.37

// pIC50 lookup, molecule = Clc1ccc(N2CCN(c3ncnc4c3ncn4C3CCCC3)CC2)cc1 , result: 6.40

// pIC50 lookup, molecule = Clc1ccc(N2CCN(c3ncnc4c3ncn4C3CCCC3)CC2)cc1Cl , result: 7.52

// pIC50 lookup, molecule = Nc1nc(F)nc2c1ncn2[C@@H]1O[C@H](CO)[C@@H](O)[C@@H]1O [FLUDARABINE] , result: 4.56

// pIC50 lookup, molecule = CC(C)(C)c1ccc(-c2ncnc3c2ncn3C2CCCC2)cc1 , result: 5.17

// pIC50 lookup, molecule = Nc1nc(Cl)nc2c1ncn2[C@H]1C[C@H](O)[C@@H](CO)O1 [CLADRIBINE] , result: 7.00

// pIC50 lookup, molecule = COc1ccc(S(=O)(=O)N2CCN(c3ncnc4c3ncn4C3CCCC3)CC2)cc1 , result: 4.14

// pIC50 lookup, molecule = c1ccc(Oc2ccc(-c3ncnc4c3ncn4C3CCCC3)cc2)cc1 , result: 7.00

// pIC50 lookup, molecule = Fc1ccc(N2CCN(c3ncnc4c3ncn4C3CCCC3)CC2)cc1 , result: 5.37

====

System: MCF7
Assay: Cytotoxicity against human MCF7 cells assessed as cell growth inhibition incubated for 72 hrs by SRB assay
Type: functional, cell-based
Conditions: MCF7, 72 h
Give measured pIC50 for each item. Keep answers brief.
Please express pIC50 as -log10 of the molar concentration.

// pIC50 lookup, compound = O=S(=O)(c1ccc(Cl)cc1)N1CCN(c2ncnc3c2ncn3C2CCCC2)CC1 , result: 4.98

// pIC50 lookup, compound = Cc1ccc(-c2ncnc3c2ncn3C2CCCC2)cc1 , result: 4.75

// pIC50 lookup, compound = c1ccc(-c2ncnc3c2ncn3C2CCCC2)cc1 , result: 4.80

// pIC50 lookup, compound = O=S(=O)(c1ccc(C(F)(F)F)cc1)N1CCN(c2ncnc3c2ncn3C2CCCC2)CC1 , result: 4.90

// pIC50 lookup, compound = O=S(=O)(c1ccc(F)cc1)N1CCN(c2ncnc3c2ncn3C2CCCC2)CC1 , result: 5.28

// pIC50 lookup, compound = COc1ccc(S(=O)(=O)N2CCN(c3ncnc4c3ncn4C3CCCC3)CC2)cc1 , result: 5.07

====

System: Huh-7
Assay: Cytotoxicity against human Huh-7 cells assessed as cell growth inhibition at 0.625 to 5 uM measured upto 72 hrs by RT-CES analysis
Type: functional, cell-based
Details: dose 0.625-5 µM
Activity calls are given as the source filed them. No cut-off for these calls is given here.
Measured endpoint: growth inhibition (GI)

c1ccc(N2CCN(c3ncnc4c3ncn4C3CCCC3)CC2)cc1 : Active
COc1ccc(N2CCN(c3ncnc4c3ncn4C3CCCC3)CC2)cc1 : Active
Clc1ccc(N2CCN(c3ncnc4c3ncn4C3CCCC3)CC2)cc1 : Active
Fc1ccc(N2CCN(c3ncnc4c3ncn4C3CCCC3)CC2)cc1 : Active

We next turn to a different compound, shown below.
Entry c1ccc(Oc2ccc(-c3ncnc4c3ncn4C3CCCC3)cc2)cc1 , tested on Huh-7, has a reported growth inhibition (GI) of Active
